Target: poly(adenosine diphosphate ribose)polymerase (PARP) (Rattus norvegicus, UniProt P27008)
Construct: was isolated from rat liver according to the article of Shah, G. M; from tissue; host or cells: rat liver
Sequence (P27008 whole entry): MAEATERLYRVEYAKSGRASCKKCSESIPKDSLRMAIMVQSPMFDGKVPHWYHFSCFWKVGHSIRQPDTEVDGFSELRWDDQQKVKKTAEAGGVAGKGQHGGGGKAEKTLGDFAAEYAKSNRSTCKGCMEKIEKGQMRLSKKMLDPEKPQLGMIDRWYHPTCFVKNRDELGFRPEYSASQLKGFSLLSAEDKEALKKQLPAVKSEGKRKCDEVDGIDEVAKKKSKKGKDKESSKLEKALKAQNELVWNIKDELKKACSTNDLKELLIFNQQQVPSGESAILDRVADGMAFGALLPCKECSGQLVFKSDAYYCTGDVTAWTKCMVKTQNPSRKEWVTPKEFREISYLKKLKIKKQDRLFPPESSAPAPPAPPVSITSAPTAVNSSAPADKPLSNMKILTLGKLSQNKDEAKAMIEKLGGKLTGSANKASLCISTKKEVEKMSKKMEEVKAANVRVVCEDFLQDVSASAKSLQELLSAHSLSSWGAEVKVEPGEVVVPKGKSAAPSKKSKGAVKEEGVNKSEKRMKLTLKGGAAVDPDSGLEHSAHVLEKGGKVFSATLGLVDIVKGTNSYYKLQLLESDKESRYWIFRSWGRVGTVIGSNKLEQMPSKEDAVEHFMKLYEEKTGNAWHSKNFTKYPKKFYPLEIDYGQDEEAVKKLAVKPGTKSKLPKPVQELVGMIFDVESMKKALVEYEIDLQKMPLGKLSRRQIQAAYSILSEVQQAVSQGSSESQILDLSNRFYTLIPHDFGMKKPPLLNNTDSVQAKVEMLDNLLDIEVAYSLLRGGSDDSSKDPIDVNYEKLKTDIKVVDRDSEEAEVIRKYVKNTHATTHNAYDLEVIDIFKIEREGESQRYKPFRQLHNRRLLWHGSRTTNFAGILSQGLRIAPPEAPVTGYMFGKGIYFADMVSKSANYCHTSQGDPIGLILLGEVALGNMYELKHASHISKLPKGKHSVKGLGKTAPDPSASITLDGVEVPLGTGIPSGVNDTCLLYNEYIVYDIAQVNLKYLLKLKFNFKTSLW
Assay: Determination of PARP inhibition, in vitro, on isolated enzyme
Assay type: biochemical
Details: PARP isolated from rat liver; four parallel measurements; read-out: PARP I0.5 (converted)
Counter-ions that a name gives are not always drawn.
REPORTED METRIC: IC50 (µM)

Some solved entries appear below for comparison.
ON=C(C=Cc1ccccc1)NCC(O)CN1CCCCC1 (stereo not drawn) = 59.3
C(=Cc1ccccc1)C1=NOC(CN2CCCCC2)CN1 (stereo not drawn) = 63.1
CC(C)(C)NCC(O)Cn1c(C=Cc2ccccc2)noc1=O (stereo not drawn) [Example 6, hydrochloride] = 53.6
O=c1onc(C=Cc2ccccc2)n1CC(O)CN1CCOCC1 (stereo not drawn) [Example 5, hydrochloride] = 39.2
O=c1onc(C=Cc2ccccc2)n1CC(O)CN1CCCCC1 (stereo not drawn) [Example 2, hydrochloride] = 27.3

a: Cc1cccc(C)c1NCC(O)Cn1c(C=Cc2ccccc2)noc1=O (stereo not drawn) [Example 9, hydrochloride]
b: O=c1onc(C=Cc2ccccc2)n1CC(O)CN1CCc2ccccc2C1 (stereo not drawn) [Example 8, hydrochloride]
**Q:** Dear colleague, could you let me know whether a or b has the lower recorded IC50? Thanks. Choose, then provide that item's label.
**A:** a
(a: 19.2 µM, b: 31.8 µM)

1: COc1ccc(C=Cc2noc(=O)n2CC(O)CN2CCCCC2)cc1OC (stereo not drawn) [Example 10, hydrochloride]
2: CN1CCN(CC(O)CNC(C=Cc2ccccc2)=NO)CC1 (stereo not drawn)
**Q:** Which shows the larger IC50 value: 1 or 2 ? Choose, then provide that item's label.
**A:** 1
